# assayRemarks: MRT in ICR mouse at 20 mg/kg,iv administration measured upto 6 hrs by LC-MS/MS analysis
# Type: ADME, organism-based
# measurementContext: in vivo

[
  {
    "molecule": "CC(C)(O/N=C(\\C(=O)N[C@@H]1C(=O)N2C(C(=O)[O-])=C(C[N+]3(CCNC(=O)c4ccc(O)c(O)c4Cl)CCCC3)CS[C@H]12)c1csc(N)n1)C(=O)[O-].[Na+]",
    "unitTag": "min",
    "MRT": 16.8
  },
  {
    "molecule": "Nc1nc(/C(=N/OC(C(=O)O)C2CCC(F)(F)CC2)C(=O)N[C@@H]2C(=O)N3C(C(=O)O)=C(CSCCNC(=O)c4ccc(O)c(O)c4Cl)CS[C@H]23)c(Br)s1.O=C(O)C(F)(F)F (stereo partly specified)",
    "unitTag": "min",
    "MRT": 96.6
  },
  {
    "molecule": "CC(C)(C)C1CCC(C(O/N=C(\\C(=O)N[C@@H]2C(=O)N3C(C(=O)O)=C(CSCCNC(=O)c4ccc(O)c(O)c4Cl)CS[C@H]23)c2csc(N)n2)C(=O)O)CC1.O=C(O)C(F)(F)F (stereo partly specified)",
    "unitTag": "min",
    "MRT": 103
  },
  {
    "molecule": "Nc1nc(/C(=N/OC(C(=O)O)C2CCCCC2)C(=O)N[C@@H]2C(=O)N3C(C(=O)O)=C(CSCCNC(=O)c4ccc(O)c(O)c4Cl)CS[C@H]23)cs1.O=C(O)C(F)(F)F (stereo partly specified)",
    "unitTag": "min",
    "MRT": 18
  },
  {
    "molecule": "C[C@@](O/N=C(\\C(=O)N[C@@H]1C(=O)N2C(C(=O)O)=C(CSCCNC(=O)c3ccc(O)c(O)c3Cl)CS[C@H]12)c1nc(N)sc1Cl)(C(=O)O)C(F)(F)F.O=C(O)C(F)(F)F",
    "unitTag": "min",
    "MRT": 18
  },
  {
    "molecule": "Cc1ccc(S(=O)(=O)O)cc1.Nc1nc(/C(=N/OC(C(=O)O)C2CCC(F)(F)CC2)C(=O)N[C@@H]2C(=O)N3C(C(=O)O)=C(CSCCNC(=O)c4ccc(O)c(O)c4Cl)CS[C@H]23)cs1 (stereo partly specified)",
    "unitTag": "min",
    "MRT": 12
  },
  {
    "molecule": "Nc1nc(/C(=N/OC(C(=O)O)C2CCC(F)(F)CC2)C(=O)N[C@@H]2C(=O)N3C(C(=O)O)=C(CSCCNC(=O)c4ccc(O)c(O)c4Cl)CS[C@H]23)cs1.O=C(O)C(F)(F)F (stereo partly specified)",
    "unitTag": "min",
    "MRT": 45.6
  },
  {
    "molecule": "Cl.Nc1nc(/C(=N/OC(C(=O)O)C2CCC(F)(F)CC2)C(=O)N[C@@H]2C(=O)N3C(C(=O)O)=C(CSCCNC(=O)c4ccc(O)c(O)c4Cl)CS[C@H]23)cs1 (stereo partly specified)",
    "unitTag": "min",
    "MRT": 18.6
  },
  {
    "molecule": "CC(C)(O/N=C(\\C(=O)N[C@@H]1C(=O)N2C(C(=O)[O-])=C(C[N+]3(CCNC(=O)c4ccc(O)c(O)c4Cl)CCCC3)CS[C@H]12)c1csc(N)n1)C(=O)O.O=C(O)C(F)(F)F",
    "unitTag": "min",
    "MRT": 26.4
  },
  {
    "molecule": "Nc1nc(/C(=N/OC(C(=O)O)C2CCC(F)(F)CC2)C(=O)N[C@@H]2C(=O)N3C(C(=O)O)=C(CSCCNC(=O)c4ccc(O)c(O)c4Cl)CS[C@H]23)c(Cl)s1.O=C(O)C(F)(F)F (stereo partly specified)",
    "unitTag": "min",
    "MRT": 10.8
  },
  {
    "molecule": "CC1CCC(C(O/N=C(\\C(=O)N[C@@H]2C(=O)N3C(C(=O)O)=C(CSCCNC(=O)c4ccc(O)c(O)c4Cl)CS[C@H]23)c2csc(N)n2)C(=O)O)CC1.O=C(O)C(F)(F)F (stereo partly specified)",
    "unitTag": "min",
    "MRT": 35.4
  }
]

###

# Test system: Escherichia coli
# assayRemarks: Antibacterial activity against ESBL-producing multidrug-resistant Escherichia coli clinical isolate 14-2 assessed as inhibition of bacterial growth incubated for 18 to 20 hrs by two fold serial dilution assay
# Type: functional
# measurementContext: time 18-20 hrs
Listed next: entries and their corresponding MIC.

[
  {
    "compound": "Nc1nc(/C(=N/OC(C(=O)O)C2CCS(=O)(=O)CC2)C(=O)N[C@@H]2C(=O)N3C(C(=O)O)=C(CSCCNC(=O)c4ccc(O)c(O)c4Cl)CS[C@H]23)cs1.O=C(O)C(F)(F)F (stereo not given in full)",
    "unitTag": "µg/mL",
    "MIC": 1
  },
  {
    "compound": "Nc1nc(/C(=N/OC(C(=O)O)C2CCC(F)(F)CC2)C(=O)N[C@@H]2C(=O)N3C(C(=O)O)=C(CSCCNC(=O)c4ccc(O)c(O)c4Cl)CS[C@H]23)c(Br)s1.O=C(O)C(F)(F)F (stereo not given in full)",
    "unitTag": "µg/mL",
    "MIC": 0.125
  },
  {
    "compound": "CC(C)[C@@H](O/N=C(\\C(=O)N[C@@H]1C(=O)N2C(C(=O)O)=C(CSCCNC(=O)c3ccc(O)c(O)c3Cl)CS[C@H]12)c1csc(N)n1)C(=O)O.O=C(O)C(F)(F)F",
    "unitTag": "µg/mL",
    "MIC": 1
  },
  {
    "compound": "Nc1nc(/C(=N/O[C@H](C(=O)O)C2CCC(F)(F)CC2)C(=O)N[C@@H]2C(=O)N3C(C(=O)O)=C(CSCCNC(=O)c4ccc(O)c(O)c4Cl)CS[C@H]23)cs1.O=C(O)C(F)(F)F",
    "unitTag": "µg/mL",
    "MIC": 1
  },
  {
    "compound": "Nc1nc(/C(=N/OC(C(=O)O)C2CCCC2)C(=O)N[C@@H]2C(=O)N3C(C(=O)O)=C(CSCCNC(=O)c4ccc(O)c(O)c4Cl)CS[C@H]23)cs1.O=C(O)C(F)(F)F (stereo not given in full)",
    "unitTag": "µg/mL",
    "MIC": 2
  }
]

###

# Tested on: Escherichia coli
# assayRemarks: Antibacterial activity against ESBL-producing multidrug-resistant Escherichia coli clinical isolate 14-1 assessed as inhibition of bacterial growth incubated for 18 to 20 hrs by two fold serial dilution assay
# Type: functional
# measurementContext: time 18-20 hrs
Listed next: entries and their corresponding log10(MIC).
reportedEndpoint: log10(MIC) (log10 of the value in µg/mL)

[
  {
    "compound": "Nc1nc(/C(=N/OC(C(=O)O)C2CCCC2)C(=O)N[C@@H]2C(=O)N3C(C(=O)O)=C(CSCCNC(=O)c4ccc(O)c(O)c4Cl)CS[C@H]23)cs1.O=C(O)C(F)(F)F (stereo partly specified)",
    "reportedEndpoint": "log10(MIC)",
    "recordedNumber": -0.60
  },
  {
    "compound": "C[C@@](O/N=C(\\C(=O)N[C@@H]1C(=O)N2C(C(=O)O)=C(CSCCNC(=O)c3ccc(O)c(O)c3Cl)CS[C@H]12)c1csc(N)n1)(C(=O)O)C(F)(F)F.O=C(O)C(F)(F)F",
    "reportedEndpoint": "log10(MIC)",
    "recordedNumber": -0.90
  },
  {
    "compound": "Nc1nc(/C(=N/O[C@H](C(=O)O)C2CCC(F)(F)CC2)C(=O)N[C@@H]2C(=O)N3C(C(=O)O)=C(CSCCNC(=O)c4ccc(O)c(O)c4Cl)CS[C@H]23)cs1.O=C(O)C(F)(F)F",
    "reportedEndpoint": "log10(MIC)",
    "recordedNumber": -0.60
  },
  {
    "compound": "CC(C)C(O/N=C(\\C(=O)N[C@@H]1C(=O)N2C(C(=O)O)=C(CS[C@H]3CC[C@@H](NC(=O)c4ccc(O)c(O)c4Cl)CC3)CS[C@H]12)c1csc(N)n1)C(=O)O.O=C(O)C(F)(F)F (stereo partly specified)",
    "reportedEndpoint": "log10(MIC)",
    "recordedNumber": -0.90
  },
  {
    "compound": "Nc1nc(/C(=N/OC(C(=O)O)C2CCS(=O)(=O)CC2)C(=O)N[C@@H]2C(=O)N3C(C(=O)O)=C(CSCCNC(=O)c4ccc(O)c(O)c4Cl)CS[C@H]23)cs1.O=C(O)C(F)(F)F (stereo partly specified)",
    "reportedEndpoint": "log10(MIC)",
    "recordedNumber": 0.00
  },
  {
    "compound": "Nc1nc(/C(=N/OC2(C(=O)O)CC2)C(=O)N[C@@H]2C(=O)N3C(C(=O)O)=C(CSCCNC(=O)c4ccc(O)c(O)c4Cl)CS[C@H]23)cs1.O=C(O)C(F)(F)F",
    "reportedEndpoint": "log10(MIC)",
    "recordedNumber": -0.30
  },
  {
    "compound": "Nc1nc(/C(=N/OC(C(=O)O)C2CCOCC2)C(=O)N[C@@H]2C(=O)N3C(C(=O)O)=C(CSCCNC(=O)c4ccc(O)c(O)c4Cl)CS[C@H]23)cs1.O=C(O)C(F)(F)F (stereo partly specified)",
    "reportedEndpoint": "log10(MIC)",
    "recordedNumber": 0.90
  },
  {
    "compound": "Nc1nc(/C(=N/OC(C(=O)O)C2CCSCC2)C(=O)N[C@@H]2C(=O)N3C(C(=O)O)=C(CSCCNC(=O)c4ccc(O)c(O)c4Cl)CS[C@H]23)cs1.O=C(O)C(F)(F)F (stereo partly specified)",
    "reportedEndpoint": "log10(MIC)",
    "recordedNumber": -0.90
  },
  {
    "compound": "Nc1nc(/C(=N/OC2(C(=O)O)CCC2)C(=O)N[C@@H]2C(=O)N3C(C(=O)O)=C(CSCCNC(=O)c4ccc(O)c(O)c4Cl)CS[C@H]23)cs1.O=C(O)C(F)(F)F",
    "reportedEndpoint": "log10(MIC)",
    "recordedNumber": -0.60
  },
  {
    "compound": "Nc1nc(/C(=N/OC(C(=O)O)C2CCC(F)(F)CC2)C(=O)N[C@@H]2C(=O)N3C(C(=O)O)=C(CSCCNC(=O)c4ccc(O)c(O)c4Cl)CS[C@H]23)c(Cl)s1.O=C(O)C(F)(F)F (stereo partly specified)",
    "reportedEndpoint": "log10(MIC)",
    "recordedNumber": -0.90
  },
  {
    "compound": "Nc1nc(/C(=N/OC(C(=O)O)C2CCC(F)(F)CC2)C(=O)N[C@@H]2C(=O)N3C(C(=O)O)=C(CSCCNC(=O)c4ccc(O)c(O)c4Cl)CS[C@H]23)cs1.O=C(O)C(F)(F)F (stereo partly specified)",
    "reportedEndpoint": "log10(MIC)",
    "recordedNumber": -0.30
  }
]
